# STUDY_TARGET: human glucagon receptor (human, UniProt P47871 26-477)
# TEST_NAME: cell-based or functional assay
Starred links: 1 amine or outer side, 2 acyl side, 3 side chain; linkers in the order of their positions; H or OH if unused. Non-standard residues stand in square brackets, D forms with d. Groups on a side chain read outwards from the residue. No end group written: not given here. *: point of attachment. C16N3 = 16-azido-hexadecanoic acid, [N-]=[N+]=NCCCCCCCCCCCCCCCC(=O)*; C5N3 = 5-azido pentinoic acid, [N-]=[N+]=NCCCCC(=O)*; Lys(N3) = [N-]=[N+]=NCCCC[C@H](N)C(=O)O; γGlu = O=C(O)[C@H](CCC(=O)[*:2])N[*:1]; Met(O2) = CS(=O)(=O)CC[C@H](N)C(=O)O; Palmitoyl = CCCCCCCCCCCCCCCC(=O)*; AEEA = NCCOCCOCC(=O)O; Aib = CC(C)(N)C(=O)O
RECORDED_ENDPOINT: hGCGR_EC50 (cAMP activity assay) (nM)
I only need the number, in nM, no unit after it.

binder="HXQGTFTSDYSKYLDERAAQDFVKWLLDT (D-Ser (s) at 2; Lys 24 K(PEG2PEG2γE-C16N3); C-terminal amide) [PEP25]" value_observed=0.04
binder="H[dS]QGTFTSDK([γGlu-γGlu-Palmitoyl])SKYLDERAAK([AEEA-C5N3])DFVQWLLDT-NH2 [PEP16]" value_observed=0.05
binder="H[dS]QGTFTSDK([γGlu-γGlu-Palmitoyl])SKYLDERAAQ[Lys(N3)]FVQWLLDT-NH2 [PEP1]" value_observed=0.01
binder="H[Aib]QGTFTSDK([γGlu-γGlu-Palmitoyl])SKYLD[Aib]RAAQDFV[Lys(N3)]WL[Met(O2)]KGRG-NH2 [PEP3]" value_observed=0.07
binder="HXQGTFTSDKSKYLDERAAQDFVXWLLDT (D-Ser (s) at 2; Lys 10 K(PEG2PEG2γEC18-OH); Nle(εN3) at 24; C-terminal amide) [PEP29]" value_observed=3.26
binder="H[Aib]QGTFTSDK([γGlu-γGlu-Palmitoyl])SKYLD[Aib]RAAQDFVQWLLDTKK([AEEA-C5N3])-NH2 [PEP20]" value_observed=0.1

What does the record list as hGCGR_EC50 (cAMP activity assay) for HXQGTFTSDKSKYLDERAAQXFVXWLXDT (D-Ser (s) at 2; Lys 10 K(γEγEC16); alpha-methyl-L-Asp (αMD) at 21; Nle(εN3) at 24; L-methionine sulphone (2) at 27; C-terminal amide) [PEP34] ?
0.05

Then H[dS]QGTFTSDK([γGlu-γGlu-Palmitoyl])SKYLDERAAK([AEEA-AEEA-C5N3])DFVQWLLDT-NH2 [PEP17] ?
0.06

Then HXQGTFTSDKSKYLDERAAQDXVXWLXDT (D-Ser (s) at 2; Lys 10 K(γEγEC16); alpha-methyl-L-Phe (αMF) at 22; Nle(εN3) at 24; L-methionine sulphone (2) at 27; C-terminal amide) [PEP35] ?
0.05

Then H[dS]QGTFTSDYSKYLDERAAK([AEEA-AEEA-γGlu-C16N3])DFVQWLLDT-NH2 [PEP26] ?
0.12

Then H[Aib]QGTFTSDK([γGlu-γGlu-Palmitoyl])SKYLDERAAQDFV[Lys(N3)]WLLDGRG-NH2 [PEP2] ?
0.11

Then HXQGTFTSDKSKYLDERAAQDFVXWLLDT (D-Ser (s) at 2; Nle(εN3) at 24; C-terminal amide) [PEP69] ?
0.31
